- TARGET_SYSTEM: HLA-A*68:01
- ASSAY_PROTOCOL: IEDB peptide-MHC binding, purified MHC/competitive/radioactivity; bounds were set here for any values at or beyond the usual limits of such assays
- COND: source organism: Homo sapiens
I'd appreciate it if you could supply pIC50 values for the items below.
Remember the convention: pIC50 equals -log10 of concentration in molar.

Supply measured pIC50 of `KLGGGQYGE` in your reply. 5.38

For the sequence `EVYEGVWKK` , give its measured pIC50 value. 8.00

----------
- TARGET_SYSTEM: HLA-A*33:01
- ASSAY_PROTOCOL: IEDB peptide-MHC binding, purified MHC/competitive/radioactivity; bounds were set here for any values at or beyond the usual limits of such assays
- COND: source organism: Homo sapiens
ASSAY_READOUT: pIC50
# pIC50: negative log10 of molar concentration; output just the value

Give the value of pIC50 reported for the following: `EVYEGVWKK` 7.22

Recall and state the measured pIC50 for `KLGGGQYGE` . 4.20

----------
- TARGET_SYSTEM: HLA-A*30:01
- ASSAY_PROTOCOL: IEDB peptide-MHC binding, purified MHC/competitive/radioactivity; bounds were set here for any values at or beyond the usual limits of such assays
- COND: source organism: Homo sapiens
ASSAY_READOUT: IC50 (µM)
Report as a plain number; the unit µM is understood.

Specify IC50 for `KLGGGQYGE` and stop. 10.1
